target: T1, recombinant N-terminal Ig-like V domain of nectin-4 (human); assay: fluorescence polarisation; fluorescence anisotropy, direct binding of probe 1a to the N-terminal Ig-like V domain of nectin-4; same procedure as for nectin-4; settings: both partners purified
T1 construct: nectin-4, N-terminal Ig-like V domain, recombinant; source: bought: Acro Biosystems (NE4-H82Ea)
T1 sequence (Q96NY8 whole entry): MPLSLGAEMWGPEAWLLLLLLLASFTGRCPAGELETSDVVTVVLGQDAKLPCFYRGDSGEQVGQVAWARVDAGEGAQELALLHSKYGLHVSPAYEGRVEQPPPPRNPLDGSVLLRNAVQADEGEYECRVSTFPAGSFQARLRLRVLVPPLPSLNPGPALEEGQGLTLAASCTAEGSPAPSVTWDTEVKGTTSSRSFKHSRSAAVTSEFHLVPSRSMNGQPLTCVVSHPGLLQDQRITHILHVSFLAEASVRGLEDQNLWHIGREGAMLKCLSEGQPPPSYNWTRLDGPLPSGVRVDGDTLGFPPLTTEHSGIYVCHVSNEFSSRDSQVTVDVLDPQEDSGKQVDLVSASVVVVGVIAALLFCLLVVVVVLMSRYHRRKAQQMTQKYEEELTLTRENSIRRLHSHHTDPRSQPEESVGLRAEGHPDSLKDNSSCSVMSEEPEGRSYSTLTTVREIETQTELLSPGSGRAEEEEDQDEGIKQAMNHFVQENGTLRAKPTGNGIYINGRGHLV
Numbered stars: 1 amine (or outer) side, 2 acyl side, 3 side chain; on linkers, the order of the positions; unused ones are H or OH. Bridge positions count the residues as written; N and C are the ends. Square brackets hold non-standard residues; d marks the D form. * marks the point of attachment. 6‑TAMRA = CN(C)c1ccc2c(-c3cc(C(=O)*)ccc3C(=O)[O-])c3ccc(N(C)C)cc3[o+]c2c1; TATA = O=C(CC[*:1])N1CN(C(=O)CC[*:2])CN(C(=O)CC[*:3])C1; 1Nal = N[C@@H](Cc1cccc2ccccc12)C(=O)O; Hyp = O=C(O)[C@@H]1C[C@@H](O)CN1; hArg = N=C(N)NCCCC[C@H](N)C(=O)O
quantity_name: Kd
For clarity, give the value followed by its unit.

Exercise: Data request, read-out Kd, for {6‑TAMRA}-CP[1Nal][dD]CM[hArg]DWSTP[Hyp]WC-NH2 (linker 1-5-15 via TATA) [1a]
Solution: 1.3 nM
